The following compounds are listed with their measured AR degradation activity, improvement compared to Galeterone values.
Target: AR (Homo sapiens, UniProt P10275, T878A)
Construct: endogenous in cells; host or cells: LNCaP
Sequence (P10275 whole entry T878A): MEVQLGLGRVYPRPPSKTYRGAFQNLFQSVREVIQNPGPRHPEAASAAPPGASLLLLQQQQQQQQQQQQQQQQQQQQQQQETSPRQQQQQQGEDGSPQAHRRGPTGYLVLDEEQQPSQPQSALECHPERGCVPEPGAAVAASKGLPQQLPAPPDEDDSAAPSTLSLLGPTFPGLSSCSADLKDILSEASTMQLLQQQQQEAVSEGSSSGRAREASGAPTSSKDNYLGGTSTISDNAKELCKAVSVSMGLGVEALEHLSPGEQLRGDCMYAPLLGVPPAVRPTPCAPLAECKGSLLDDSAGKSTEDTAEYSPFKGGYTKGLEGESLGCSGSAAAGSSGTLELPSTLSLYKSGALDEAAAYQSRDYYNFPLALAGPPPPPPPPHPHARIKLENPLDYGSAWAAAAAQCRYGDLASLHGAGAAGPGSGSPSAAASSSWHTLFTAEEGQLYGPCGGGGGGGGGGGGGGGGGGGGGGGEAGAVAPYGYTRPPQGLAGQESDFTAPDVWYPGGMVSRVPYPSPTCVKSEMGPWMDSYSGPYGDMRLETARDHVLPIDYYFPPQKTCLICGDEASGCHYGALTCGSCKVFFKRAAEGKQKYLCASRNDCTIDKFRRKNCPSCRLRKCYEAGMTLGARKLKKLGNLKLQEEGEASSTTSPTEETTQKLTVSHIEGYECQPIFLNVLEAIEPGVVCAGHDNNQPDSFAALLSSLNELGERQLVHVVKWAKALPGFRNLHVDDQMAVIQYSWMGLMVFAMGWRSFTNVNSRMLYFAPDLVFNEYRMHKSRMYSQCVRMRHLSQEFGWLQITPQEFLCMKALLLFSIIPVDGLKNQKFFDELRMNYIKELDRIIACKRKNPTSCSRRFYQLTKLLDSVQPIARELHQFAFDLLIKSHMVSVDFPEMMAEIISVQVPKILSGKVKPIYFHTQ
Assay: In vitro AR degradation activity test in LNCaP cells (ELISA, OD450)
Format: cell-based
Details: ratio to Galeterone DC50
EXPERIMENTAL_ENDPOINT: AR degradation activity, improvement compared to Galeterone (times)

{"COMPOUND": "Cc1cn(C2=CCC3C4CC=C5C[C@@H](NC(=O)c6ccc(F)cc6F)CC[C@]5(C)C4CC[C@]23C)cn1 (stereo partly shown)", "UNIT_TAG": "times", "REPORTED_VALUE": 6.2}
{"COMPOUND": "Cc1cn(C2=CCC3C4CC=C5C[C@@H](NC(=O)c6ccc(S(C)(=O)=O)cc6)CC[C@]5(C)C4CC[C@]23C)cn1 (stereo partly shown)", "UNIT_TAG": "times", "REPORTED_VALUE": 6.7}
{"COMPOUND": "Cc1cn(C2=CCC3C4CC=C5C[C@@H](NC(=O)c6ccc(F)cc6)CC[C@]5(C)C4CC[C@]23C)cn1 (stereo partly shown)", "UNIT_TAG": "times", "REPORTED_VALUE": 8.1}
{"COMPOUND": "Cc1cn(C2=CCC3C4CC=C5C[C@@H](NC(=O)c6ccc(C#N)cc6)CC[C@]5(C)C4CC[C@]23C)cn1 (stereo partly shown)", "UNIT_TAG": "times", "REPORTED_VALUE": 7.6}

====

Assay: In vivo pharmacokinetics in rats after oral gavage
Conditions: male SD rats, PO 10 mg/kg

{"COMPOUND": "C[C@]12CC[C@H](O)CC1=CC[C@@H]1[C@@H]2CC[C@]2(C)C(c3cccnc3)=CC[C@@H]12 [Abiraterone, abiraterone, reference compound]", "MRTPO": "4.60 h"}
{"COMPOUND": "Cc1cn(C2=CCC3C4CC=C5C[C@@H](NC(=O)c6ccc(F)cc6)CC[C@]5(C)C4CC[C@]23C)cn1 (stereo partly drawn) [Compound 33]", "MRTPO": "6.03 h"}
{"COMPOUND": "C[C@]12CC[C@H](NC(=O)c3ccnnc3)CC1=CCC1C2CC[C@]2(C)C(n3ccnc3)=CCC12 (stereo partly drawn) [Compound 16]", "MRTPO": "6.25 h"}
{"COMPOUND": "Cc1cn(C2=CCC3C4CC=C5C[C@@H](NC(=O)c6ccc(F)cc6F)CC[C@]5(C)C4CC[C@]23C)cn1 (stereo partly drawn) [Compound 37]", "MRTPO": "10.0 h"}
{"COMPOUND": "C[C@]12CC[C@H](NC(=O)c3ccncc3)CC1=CCC1C2CC[C@]2(C)C(n3ccnc3)=CCC12 (stereo partly drawn) [Compound 17]", "MRTPO": "15.5 h"}
{"COMPOUND": "Cc1cn(C2=CCC3C4CC=C5C[C@@H](NC(=O)c6ccncc6)CC[C@]5(C)C4CC[C@]23C)cn1 (stereo partly drawn) [Compound 14]", "MRTPO": "5.12 h"}

====

Target: AR(W741L) (Homo sapiens, UniProt P10275, W742L)
Construct: expressed in transfected cells; host or cells: HEK293
Sequence (P10275 whole entry W742L): as the sequence (P10275 whole entry T878A) above, with W742L, A878T counted along it
Experiment: Mutant AR antagonistic activity test, W741L (reporter gene in HEK293 cells)
Assay type: cell-based
Settings: HEK293 cells, DHT 10 nM, 24 hours; read-out: W741L IC50(nM) 1st gen AR antagonist resistant mutation
The following compounds are listed with their measured IC50 values.

{"COMPOUND": "Cc1cn(C2=CCC3C4CC=C5C[C@@H](NC(=O)c6ccc(F)cc6)CC[C@]5(C)C4CC[C@]23C)cn1 (stereo partly shown) [Compound 33]", "IC50 [nM]": 371}
{"COMPOUND": "Cc1cn(C2=CCC3C4CC=C5C[C@@H](NC(=O)c6ccc(S(C)(=O)=O)cc6)CC[C@]5(C)C4CC[C@]23C)cn1 (stereo partly shown) [Compound 35]", "IC50 [nM]": 259}
{"COMPOUND": "Cc1cn(C2=CCC3C4CC=C5C[C@@H](NC(=O)c6ccncc6)CC[C@]5(C)C4CC[C@]23C)cn1 (stereo partly shown) [Compound 14]", "IC50 [nM]": 490}
{"COMPOUND": "Cc1cn(C2=CCC3C4CC=C5C[C@@H](NC(=O)c6ccc(F)cc6F)CC[C@]5(C)C4CC[C@]23C)cn1 (stereo partly shown) [Compound 37]", "IC50 [nM]": 413}

====

Test: In vivo pharmacokinetics in rats after oral gavage
Details: male SD rats, PO 10 mg/kg
The following compounds are listed with their measured Kel values.

{"COMPOUND": "C[C@]12CC[C@H](O)CC1=CC[C@@H]1[C@@H]2CC[C@]2(C)C(c3cccnc3)=CC[C@@H]12 [Abiraterone, abiraterone, reference compound]", "Kel / h⁻¹": 0.298}
{"COMPOUND": "Cc1cn(C2=CCC3C4CC=C5C[C@@H](NC(=O)c6ccc(F)cc6)CC[C@]5(C)C4CC[C@]23C)cn1 (stereo partly drawn)", "Kel / h⁻¹": 0.214}
{"COMPOUND": "C[C@]12CC[C@H](NC(=O)c3ccnnc3)CC1=CCC1C2CC[C@]2(C)C(n3ccnc3)=CCC12 (stereo partly drawn)", "Kel / h⁻¹": 0.296}

====

Target: AR(F876L) (Homo sapiens, UniProt P10275, F877L)
Construct: expressed in transfected cells; host or cells: HEK293
Sequence (P10275 whole entry F877L): as the sequence (P10275 whole entry T878A) above, with F877L, A878T counted along it
Experiment: Mutant AR antagonistic activity test, F876L (reporter gene in HEK293 cells)
Type: cell-based
Conditions: DHT 10 nM, 24 hours, read-out: F876L IC50(nM) 2nd gen AR antagonist resistant mutation

{"COMPOUND": "Cc1cn(C2=CCC3C4CC=C5C[C@@H](NC(=O)c6ccc(S(C)(=O)=O)cc6)CC[C@]5(C)C4CC[C@]23C)cn1 (stereo partly shown)", "IC50 / nM": 326}
{"COMPOUND": "Cc1cn(C2=CCC3C4CC=C5C[C@@H](NC(=O)c6ccc(F)cc6)CC[C@]5(C)C4CC[C@]23C)cn1 (stereo partly shown)", "IC50 / nM": 390}
{"COMPOUND": "Cc1cn(C2=CCC3C4CC=C5C[C@@H](NC(=O)c6ccc(F)cc6F)CC[C@]5(C)C4CC[C@]23C)cn1 (stereo partly shown)", "IC50 / nM": 273}
{"COMPOUND": "Cc1cn(C2=CCC3C4CC=C5C[C@@H](NC(=O)c6ccncc6)CC[C@]5(C)C4CC[C@]23C)cn1 (stereo partly shown)", "IC50 / nM": 268}

====

Test: In vivo pharmacokinetics in rats after oral gavage
Settings: rat, plasma; male SD rats, PO 10 mg/kg; read-out: Cmax
The following molecules are listed with their measured Cmax values.

{"MOLECULE": "C[C@]12CC[C@H](NC(=O)c3ccncc3)CC1=CCC1C2CC[C@]2(C)C(n3ccnc3)=CCC12 (stereo partly shown) [Compound 17]", "Cmax": "4500 ng/mL"}
{"MOLECULE": "Cc1cn(C2=CCC3C4CC=C5C[C@@H](NC(=O)c6ccc(F)cc6F)CC[C@]5(C)C4CC[C@]23C)cn1 (stereo partly shown) [Compound 37]", "Cmax": "1550 ng/mL"}
{"MOLECULE": "C[C@]12CC[C@H](O)CC1=CC[C@@H]1[C@@H]2CC[C@]2(C)C(c3cccnc3)=CC[C@@H]12 [Abiraterone, abiraterone, reference compound]", "Cmax": "48.4 ng/mL"}
{"MOLECULE": "C[C@]12CC[C@H](NC(=O)c3ccnnc3)CC1=CCC1C2CC[C@]2(C)C(n3ccnc3)=CCC12 (stereo partly shown) [Compound 16]", "Cmax": "3240 ng/mL"}

====

Assay: In vivo pharmacokinetics in rats after oral gavage
Conditions: male SD rats, PO 10 mg/kg
The following molecules are listed with their measured Kel values.
EXPERIMENTAL_ENDPOINT: Kel (h⁻¹)

{"MOLECULE": "Cc1cn(C2=CCC3C4CC=C5C[C@@H](NC(=O)c6ccc(F)cc6F)CC[C@]5(C)C4CC[C@]23C)cn1 (stereo partly drawn)", "EXPERIMENTAL_ENDPOINT": "Kel", "REPORTED_VALUE": 0.124}
{"MOLECULE": "Cc1cn(C2=CCC3C4CC=C5C[C@@H](NC(=O)c6ccncc6)CC[C@]5(C)C4CC[C@]23C)cn1 (stereo partly drawn)", "EXPERIMENTAL_ENDPOINT": "Kel", "REPORTED_VALUE": 0.252}
{"MOLECULE": "C[C@]12CC[C@H](NC(=O)c3ccncc3)CC1=CCC1C2CC[C@]2(C)C(n3ccnc3)=CCC12 (stereo partly drawn)", "EXPERIMENTAL_ENDPOINT": "Kel", "REPORTED_VALUE": 0.112}

====

The following molecules are listed with their measured AR antagonist activity, times higher than that of the control enzalutamide values.
Target: wild-type AR (Homo sapiens)
Construct: expressed in transfected cells; host or cells: HEK293
Sequence (P10275 whole entry): as the sequence (P10275 whole entry T878A) above, with A878T counted along it
Assay: Wild-type AR antagonist activity test (luciferase reporter in HEK293 cells)
Type: cell-based
Conditions: ratio to enzalutamide IC50
EXPERIMENTAL_ENDPOINT: AR antagonist activity, times higher than that of the control enzalutamide (times)

{"MOLECULE": "Cc1cn(C2=CCC3C4CC=C5C[C@@H](NC(=O)c6ccc(F)cc6F)CC[C@]5(C)C4CC[C@]23C)cn1 (some centres unmarked) [Compound 37]", "UNIT_TAG": "times", "REPORTED_VALUE": 1.9}
{"MOLECULE": "Cc1cn(C2=CCC3C4CC=C5C[C@@H](NC(=O)c6ccnnc6)CC[C@]5(C)C4CC[C@]23C)cn1 (some centres unmarked) [Compound 13]", "UNIT_TAG": "times", "REPORTED_VALUE": 1.8}
{"MOLECULE": "Cc1cn(C2=CCC3C4CC=C5C[C@@H](NC(=O)c6ccc([N+](=O)[O-])cc6)CC[C@]5(C)C4CC[C@]23C)cn1 (some centres unmarked) [Compound 34]", "UNIT_TAG": "times", "REPORTED_VALUE": 6.2}
{"MOLECULE": "Cc1cn(C2=CCC3C4CC=C5C[C@@H](NC(=O)c6ccc(F)cc6)CC[C@]5(C)C4CC[C@]23C)cn1 (some centres unmarked) [Compound 33]", "UNIT_TAG": "times", "REPORTED_VALUE": 3.6}
{"MOLECULE": "Cc1cn(C2=CCC3C4CC=C5C[C@@H](NC(=O)c6ccncc6)CC[C@]5(C)C4CC[C@]23C)cn1 (some centres unmarked) [Compound 14]", "UNIT_TAG": "times", "REPORTED_VALUE": 1.8}

Values were extracted from patent US20250073249A1.
